# Target system: UniProt A0A0R4IM31
# Sequence (A0A0R4IM31 whole entry): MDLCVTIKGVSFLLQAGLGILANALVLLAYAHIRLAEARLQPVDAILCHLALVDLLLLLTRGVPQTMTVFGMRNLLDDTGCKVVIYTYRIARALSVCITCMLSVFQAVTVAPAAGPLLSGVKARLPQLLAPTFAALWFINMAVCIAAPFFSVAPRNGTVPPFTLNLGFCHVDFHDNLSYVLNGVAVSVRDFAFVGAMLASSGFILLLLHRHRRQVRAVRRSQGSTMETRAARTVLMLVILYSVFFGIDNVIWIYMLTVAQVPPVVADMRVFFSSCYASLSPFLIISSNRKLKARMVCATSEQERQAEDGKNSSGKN
# Measurement protocol: Functional Calcium Imaging Assay
# Stated conditions: pH 7.4
# Protocol: Briefly, HEK 293T cells stably expressing the G protein-chimera Gα16gust44 were seeded onto 96-well plates coated with 10 μg/ml of poly-D-lysine. […] To remove excessive fluorescence dye, cells were washed three times with buffer C1 and transferred into a fluorometric imaging plate reader (FLIPR, Molecular Devices) for measurement. Test substances were dissolved in C1 buffer and the changes in fluorescence after application of test substances were monitored.
Rule: EC50 below 30 µM gives yes (1), anything at or above gives no (0).

# strict comparison: is reported EC50 < 30 µM? input = CC(C(=O)O)c1ccc(O)cc1 (stereo not given) [Methyl-4-hydroxyphenylacetic acid]
no (0)

# strict comparison: is reported EC50 < 30 µM? input = O=C(O)Cc1ccc(O)cc1 [2-(4-hydroxyphenyl)acetic acid]
yes (1)

# strict comparison: is reported EC50 < 30 µM? input = Nc1ccc(CC(=O)O)cc1
no (0)

# strict comparison: is reported EC50 < 30 µM? input = O=C(O)Cc1ccc(O)c(O)c1
yes (1)

# strict comparison: is reported EC50 < 30 µM? input = Cc1ccc(C(=O)CC(=O)O)cc1
yes (1)

# strict comparison: is reported EC50 < 30 µM? input = COc1ccc(CC(=O)O)cc1
yes (1)

# strict comparison: is reported EC50 < 30 µM? input = O=C(O)Cc1ccc(Cl)cc1
yes (1)

# strict comparison: is reported EC50 < 30 µM? input = O=C(O)CCc1ccc(O)cc1 [3-(4-Hydroxyphenyl)-propionic acid]
no (0)

# strict comparison: is reported EC50 < 30 µM? input = O=C(O)Cc1ccc2c(c1)OCO2
yes (1)
